- method-notes: Quantitative High-Throughput drug screen in 47 multiple myeloma cell lines against the NCATS MIPE library collection: XG6_PLB cell viability assay (AID 1919865); further: nearly all actives have a fitted effect of over 40% in size
- test-parameters: XG6 myeloma viability, CellTiter-Glo ATP luminescence, 48 h; series mostly up to 45.8 µM
Records with an inconclusive call do not appear. The source made the active and inactive calls. The call rests on the fitted dose curve; in most records, active means well fitted cell-killing curve with a large enough effect; inconclusive means small, poorly fitted or top-dose-only effect, or effect the other way; inactive means no such curve, though single readings can be large or run the other way.
Give one outcome, nothing more. List: active, inactive

Query string: What did this assay record as the result for CN1CCC(=C2c3ccccc3CC(=O)c3sccc32)CC1 ?
Result string: active

Query string: What did this assay record as the result for CC1(CN2CCC(n3c(=O)[nH]c4ccccc43)CC2)OCc2ccccc2-n2cccc21 (stereo unspecified) ?
Result string: active

Query string: What did this assay record as the result for O=c1[nH]cc(F)c(=O)[nH]1 ?
Result string: active

Query string: What did this assay record as the result for COc1ccc(C2CNC(=O)C2)cc1OC1CCCC1 (stereo unspecified) ?
Result string: active

Query string: What did this assay record as the result for NCCCCCC(=O)O ?
Result string: inactive

Query string: What did this assay record as the result for C[C@H]1c2cccc(O)c2C(O)=C2C(=O)[C@]3(O)C(O)=C(C(N)=O)C(=O)[C@@H](N(C)C)[C@@H]3[C@@H](O)[C@@H]21 ?
Result string: active
